The measured values listed here are drawn from paper PMC4596477.

Molecular target: T1, MRIP^724-878 (myosin phosphatase-RhoA interacting protein, residues 724–878; CC2-CC4) (UniProt Q6WCQ1 724-878)
T1 construct: Tight homodimer in solution by AUC; the forward primer puts an NdeI ATG before the codons GAGCGAGGGTTTGCAGCAATG; source: E. coli BL21 (DE3), purified (chitin beads, C8 reversed-phase HPLC)
T1 sequence (looked up): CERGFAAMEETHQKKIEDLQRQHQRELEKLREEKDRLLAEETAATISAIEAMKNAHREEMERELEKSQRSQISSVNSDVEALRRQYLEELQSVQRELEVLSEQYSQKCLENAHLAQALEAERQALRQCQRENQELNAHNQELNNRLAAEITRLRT
Assay: SPR; Biacore 3000, 25°C; LR immobilised (244.8 RU) by amine coupling on CM5, analyte MRIP^724-878 (85.6–0.7 μM); reference surface a nebulin-derived peptide; 50 mM potassium phosphate pH 7.4, 100 mM KCl; steady-state affinity fit
Conditions: both partners purified
Reported Endpoint: Kd (µM)
Give just the number in µM; leave the unit off.

What Kd value was documented for this binder, ERRISEMEEELKMLPDLKADNQRLKDENGALIRVISKLSK (peptide, UniProt O14974 991-1030, looked up, no result of its own is told for it; also called WT-LR; source: E. coli BL21 (DE3), purified (chitin beads, C8 reversed-phase HPLC)) [LR, leucine repeat region of MYPT1 (residues 991–1030)] ?
40
